B1: TBX5 (parent)
chain: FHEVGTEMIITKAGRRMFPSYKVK

variants of: B1; experiment: protein stability index of a GFP-peptide fusion (GPS, HEK-293T) (PSI 1-6); higher = more stable; settings: c terminus: a fixed tail appended;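 note: lentivirally expressed fusions sorted by FACS into six bins by GFP to DsRed ratio, PSI derived from sequencing read proportions per bin multiplied by bin number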
Consider the following variants; for each one, report its protein stability index.
Numbers only.

For each of the items listed, what is its protein stability index?
1. FHEQGTEMIITKAGRRMFPSYKVK [V4Q]
2. FHIVGTEMIITKAGRRMFPSYKVK [E3I]

Result:
[1.96, 4.17]

For each of the items listed, what is its protein stability index?
1. FHEVGTETIITKAGRRMFPSYKVK [M8T]
2. FHEVGTEMIITKAGRRQFPSYKVK [M17Q]
3. FHENGTEMIITKAGRRMFPSYKVK [V4N]
4. FHEVGTEMIITKAGLRMFPSYKVK [R15L]
5. FHEVGTEMYITKAGRRMFPSYKVK [I9Y]

Result:
[2.2, 2.5, 2.05, 1.81, 1.8]

For each of the items listed, what is its protein stability index?
1. FHEVGTEMIITKAGRRMFPRYKVK [S20R]
2. FHEVGTEMIITKAGRRMFPSYMVK [K22M]
3. FHEVGTEMIITKAGRRMFPSQKVK [Y21Q]
4. FHEVGTEMIKTKAGRRMFPSYKVK [I10K]

Result:
1. 2.61
2. 2.01
3. 2.7
4. 2.84
